method: Regional brain distribution in rats after iv injection
Assay type: in vivo, Male Sprague-Dawley rats
applied_conditions: rat, hypothalamus; 3 min, iv, rats (Table IV); read-out: Regional distribution, hypothalamus
metric_name: tissue uptake at 0.05 h

Lab note: measured tissue uptake at 0.05 h of COc1ccccc1N1CCN(CCN(C(=O)c2cccc([123I])c2)c2ccccn2)CC1 [[^123 I] 1b] was 0.042 %ID/g

###

method: Regional brain distribution in rats after iv injection
Type: in vivo, Male Sprague-Dawley rats
applied_conditions: rat, cortex; 120 min, iv, rats (Table III); read-out: Regional distribution, cortex
metric_name: tissue uptake at 2 h (%ID/g)
The response must be a number in %ID/g with no trailing unit.

For this compound ( COc1ccccc1N1CCN(CCN(C(=O)c2ccc([123I])cc2)c2ccccn2)CC1 [[^123 I] 1a] ), measured tissue uptake at 2 h is 0.026

###

method: Regional brain distribution in rats after iv injection
Assay type: in vivo, Male Sprague-Dawley rats
applied_conditions: rat, striatum; 30 min, iv, rats (Table III); read-out: Regional distribution, striatum
metric_name: tissue uptake at 0.5 h (%ID/g)
Report the figure in %ID/g without appending any unit label.

Just so you know, measured tissue uptake at 0.5 h for COc1ccccc1N1CCN(CCN(C(=O)c2ccc([123I])cc2)c2ccccn2)CC1 [[^123 I] 1a] came out at 0.09

###

method: Regional brain distribution in rats after iv injection
Assay type: in vivo, Male Sprague-Dawley rats
applied_conditions: rat, cerebellum; 3 min, iv, rats (Table IV); read-out: Regional distribution, cerebellum
metric_name: tissue uptake at 0.05 h (%ID/g)
# number only, unit %ID/g dropped from output

Query COc1ccccc1N1CCN(CCN(C(=O)c2cccc([123I])c2)c2ccccn2)CC1 [[^123 I] 1b] yields tissue uptake at 0.05 h of 0.039

###

target_entity: 5-HT1A receptor (rat hippocampal homogenates) (Rattus norvegicus)
Construct: in rat hippocampal membrane preparations; from tissue; host or cells: rat hippocampus (membrane preparations / tissue homogenates)
Sequence (P19327 whole entry): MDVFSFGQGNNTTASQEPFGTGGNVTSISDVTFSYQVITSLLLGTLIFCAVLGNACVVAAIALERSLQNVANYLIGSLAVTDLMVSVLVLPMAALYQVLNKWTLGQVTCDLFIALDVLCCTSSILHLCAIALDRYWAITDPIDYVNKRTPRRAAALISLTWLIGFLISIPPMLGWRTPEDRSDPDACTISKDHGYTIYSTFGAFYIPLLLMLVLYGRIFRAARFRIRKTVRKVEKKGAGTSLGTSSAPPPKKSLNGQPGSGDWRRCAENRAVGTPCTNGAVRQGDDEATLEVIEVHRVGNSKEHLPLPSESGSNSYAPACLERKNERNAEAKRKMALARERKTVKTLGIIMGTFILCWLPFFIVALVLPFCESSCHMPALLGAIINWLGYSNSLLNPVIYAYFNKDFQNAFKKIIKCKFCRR
method: Inhibition of [^125 I]-p-MPP binding to rat hippocampal homogenates
metric_name: Ki

Data point: O=C(c1ccc(F)cc1)C1CCN(CCn2c(=O)[nH]c3ccccc3c2=O)CC1 [hetanserin] ; Ki = 1970 nM
